Record form. Attribute: Percent Effect. Fill in for each entry.
- system-name: Sialic acid-binding Ig-like lectin 9 (Homo sapiens) (UniProt Q9Y336)
- Sequence (Q9Y336 whole entry): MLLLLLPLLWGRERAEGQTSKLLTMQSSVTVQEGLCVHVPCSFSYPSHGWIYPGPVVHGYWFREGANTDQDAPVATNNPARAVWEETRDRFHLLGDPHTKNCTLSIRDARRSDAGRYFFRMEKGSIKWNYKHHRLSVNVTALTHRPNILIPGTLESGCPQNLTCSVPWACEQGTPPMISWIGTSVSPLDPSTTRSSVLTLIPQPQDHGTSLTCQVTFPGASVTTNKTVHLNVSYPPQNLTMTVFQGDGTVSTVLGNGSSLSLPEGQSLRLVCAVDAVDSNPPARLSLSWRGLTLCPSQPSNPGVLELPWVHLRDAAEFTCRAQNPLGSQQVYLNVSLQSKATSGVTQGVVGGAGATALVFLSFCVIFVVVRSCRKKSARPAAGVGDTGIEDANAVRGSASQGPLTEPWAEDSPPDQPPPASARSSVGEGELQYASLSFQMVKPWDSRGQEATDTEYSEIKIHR
- assay: Hs-Siglec9 ALPHAscreen SOP 20170721
- Design: scale not given: direction of the effect not stated beside the values
- recorded-conditions: 10 µM
Enter the number, and then the unit.

Some molecules with recorded Percent Effect:
• Cn1cccc1CNC(=O)CCCc1nnc2ccccn12 = 1.09%
• CC(Cn1cccn1)NCc1csc(-c2ccccc2F)n1 (configuration not stated) = 7.22%
• O=C(CCc1cscn1)NS(=O)(=O)c1ccc2c(c1)CCC2 = 36.9%
• COc1cc(C(=O)NC(CC(=O)O)c2cccs2)cc(Cl)c1OC (configuration not stated) = -5.2%
• CNC(=O)C1Cn2ccnc2C2(CCN(CCF)CC2)O1 (configuration not stated) = -5.27%

Record Percent Effect for all entries; do not skip any.
1. CC(C)c1ccc(C(C)NC(=O)N2CCC(n3cncn3)CC2)cc1 (configuration not stated)
2. CN(Cc1ccccn1)C(=O)[C@]12COC[C@H]1CN(Cc1cnn(C)c1)C2
3. CC(=O)N1CC[C@H]2OCC[C@@]2(C(=O)NCc2ccco2)C1
4. CC(C)(C)OC(=O)N1CCCc2ccc(NCc3ncc[nH]3)cc21
5. CN(C)c1cc(C(=O)NCCc2n[nH]c(=O)[nH]2)ccn1
6. CC(Cn1cccn1)NC(=O)Nc1nccs1 (configuration not stated)
7. COc1nn(C)c2c1CCCN(C(=O)c1ccccc1)C2

1: 13.7%; 2: 6.55%; 3: 12.6%; 4: 4.72%; 5: 7.32%; 6: 4.54%; 7: -2.98%

Record Percent Effect for all entries; do not skip any.
1. O=C(Cn1nc(-c2cccs2)ccc1=O)N1CCCCCC1
2. Cc1ccc(Nc2nccc(C3CN(CC(N)=O)C3)n2)nc1
3. CC(C)N1Cc2c(C(=O)N3CCOCC3)nn(C)c2C1

["8.95%", "3.4%", "1.67%"]

Record Percent Effect for all entries; do not skip any.
1. Cc1cccc(C)c1OCCNC(=O)NC(C)c1nncn1C (configuration not stated)
2. Cc1cccc(CN2C(=O)CC[C@@H]3[C@H]2CCN3Cc2ccc(C)s2)n1
3. Cc1cnn(CC2CCCN2C(=O)CCCc2nc(C)no2)c1 (configuration not stated)
4. Cc1occc1C(=O)N1CCO[C@H]2[C@@H](Oc3ccccn3)CC[C@@H]21
5. Nc1cc2c(nn1)CCN(C(=O)c1cccc3c1OCCO3)C2
6. O=S(=O)(CCN1CCOC(Cn2cncn2)C1)c1ccccc1 (configuration not stated)
7. CCCc1nc(C)cc(N2CCC3(CCC(=O)N(CCOC)C3)CC2)n1
8. COc1ccc(NC(=O)N2CCN(c3ncccn3)CC2)cn1

-14.1%
2.33%
-10.6%
1.56%
6.77%
12.3%
-1.18%
-2.77%

Record Percent Effect for all entries; do not skip any.
1. Cc1ccccc1Cc1cnc(NC(=O)C2CNC(=O)N2)s1 (configuration not stated)
2. CC(NC(=O)CNCCn1cccn1)c1ccc2c(c1)OCCO2 (configuration not stated)
3. Cc1cc(C)n(C2CCCN(C(=O)c3cnc4onc(C)c4c3)C2)n1 (configuration not stated)
4. Cn1cnc2c1CCN(Cc1nc(-c3ccsc3)no1)C2
5. Cn1ncc2c1CN(Cc1cccnc1)CC2COCC1CC1 (configuration not stated)

1. 0.365%
2. 7.51%
3. 12.3%
4. 15.8%
5. 3.4%
